TARGET: T1, Tag1-LAG3 protein (UniProt P18627 23-450, limits assumed)
T1 construct: Kit reagent (Cisbio); Tag1 is not identified
T1 sequence (looked up): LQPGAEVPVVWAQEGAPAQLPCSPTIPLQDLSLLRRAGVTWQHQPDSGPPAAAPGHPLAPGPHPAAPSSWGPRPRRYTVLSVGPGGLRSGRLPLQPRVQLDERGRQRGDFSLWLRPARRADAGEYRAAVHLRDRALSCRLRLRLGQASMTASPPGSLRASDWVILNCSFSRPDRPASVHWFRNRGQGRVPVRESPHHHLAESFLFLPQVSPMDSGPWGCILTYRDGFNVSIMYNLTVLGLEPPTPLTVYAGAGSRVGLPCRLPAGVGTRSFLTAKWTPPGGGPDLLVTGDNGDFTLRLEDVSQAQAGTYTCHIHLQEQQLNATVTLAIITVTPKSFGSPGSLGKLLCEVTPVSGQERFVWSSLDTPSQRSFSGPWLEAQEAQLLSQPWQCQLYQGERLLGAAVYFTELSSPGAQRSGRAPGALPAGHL
METHOD DESCRIPTION: HTRF (TR-FRET) competition, inhibition of LAG3:MHC-II binding
For each entry below, report its pIC50 value.
Quick note: pIC50 means taking -log10 of the concentration in moles per liter.

input: Item GGVAIFLALFGGMVSSWEWD (20-mer peptide) [peptide 141] : provide pIC50
output: 5.17

input: Read the entry SLPYSNIYIELDSGYWNSES (20-mer peptide) [peptide 155] and write its reported pIC50.
output: 6.89

input: Dear colleague, please send me the reported pIC50 for SAPWEPLHWPEDWWQGTGEW (positive peptide control in the LAG3/MHC-II assay) [Peptide LG11] when you can.
output: 4.74

input: Annotate the binder RTDRYTLSYIWTSDEWMLFD (20-mer peptide) [peptide 115] with its measured pIC50.
output: 6.81

input: Using known records, supply pIC50 for QGSTSGWGFGAMYELTYDVY (20-mer peptide) [peptide 16]
output: 6.66

input: Quote pIC50 reported for VFRMDWDEKEVRLYADDILL (20-mer peptide) [peptide 146] please.
output: 6.70
